Where do these numbers come from? They come from the supplement of paper PMC9170038.

Tested on: MS2 coat protein
Test: apparent KD of MS2 coat protein; designed switch direction (-1 OFF switch, 1 ON switch): 1; higher = weaker reporter binding
Conditions: input ligand: FMN 200 uM
TEST_READOUT: apparent KD of MS2 coat protein

Answered examples (2):
SEQUENCE_RECORD	apparent KD of MS2 coat protein
CUUUUUAGUGCAGGAUAUGAUCAACAUGAGGAUCACCCAUGUGGCGUUGUGAGUAGGGAGAGUGAUCAGAAGGGCGUCUCCGCG [SS-NG2-LRO11] (Eterna round: R96, puzzle: Same State NG 2)	72 nM
CUCAACAACACAGGAUAUCCAGGGAAAAGACCUGGAGAAGGGUGACCAACAUGAGGAUCACCCAUGUGACGGCUAGACCGUCUG [Isquce] (Eterna round: R96, puzzle: Same State NG 1)	593 nM

The record that follows has no apparent KD of MS2 coat protein shown yet.
Input line: # return recorded apparent KD of MS2 coat protein for input GGACGUCAUCUCAAUAAUUAAACAUGAGGAUCACCCAUGUCACAGGAUAUGGAUCCUAAUUGGAUCCAGAAGGGUGUGACGUCC [Fiskers NG3ss - 40] (Eterna round: R96, puzzle: Same State NG 3)
Output line: 54.3 nM
